target: KRAS G12D (Homo sapiens (Human), UniProt P01116+P62937, G12D); test: Ras-Raf (BRAF RBD) disruption / FRET / MOA assay, KRAS G12D; type: biochemical; details: Ras-Raf disruption/FRET/MOA assay; class symbols; read-out: KRAS G12D FRET data IC50
Sequence (P01116-2 other isoform, or with tags, fused parts or gaps G12D): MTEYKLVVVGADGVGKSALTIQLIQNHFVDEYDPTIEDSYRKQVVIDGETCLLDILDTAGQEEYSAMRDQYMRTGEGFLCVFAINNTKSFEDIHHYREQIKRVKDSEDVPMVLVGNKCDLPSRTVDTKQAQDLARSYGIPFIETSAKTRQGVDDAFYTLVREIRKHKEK
Sequence (P62937 whole entry): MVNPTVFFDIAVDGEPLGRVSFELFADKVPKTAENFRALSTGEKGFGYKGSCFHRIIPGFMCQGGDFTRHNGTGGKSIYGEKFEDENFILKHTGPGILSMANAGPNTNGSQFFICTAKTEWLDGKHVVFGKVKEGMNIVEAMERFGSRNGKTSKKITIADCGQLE
pIC50: −log10 of the molar value.
readout: pIC50

# count of solved cases: 3
molecule="C=CC(=O)N1CC[C@H](C(=O)N(C)[C@H](C(=O)N[C@H]2Cc3csc(n3)-c3ccc4c(c3)c(c(-c3cccnc3[C@H](C)OC)n4CC)CC(C)(C)COC(=O)[C@@H]3CCCN(N3)C2=O)C(C)C)C1 (atropisomer, axis not shown)" readout=pIC50 observedresult="5.00 to 6.00"
molecule="C=CC(=O)N1CCCN(C(=O)N(C)[C@H](C(=O)N[C@H]2Cc3cc(O)cc(c3)-c3ccc4c(c3)c(c(-c3cccnc3[C@H](C)OC)n4CC)CC(C)(C)COC(=O)[C@@H]3CCCN(N3)C2=O)C(C)C)CC1 (atropisomer, axis not shown)" readout=pIC50 observedresult="7.00 to 8.00"
molecule="C=CC(=O)N1CC2(COCCN2C(=O)N(C)[C@H](C(=O)N[C@H]2Cc3nc(cs3)-c3ccc4c(c3)c(c(-c3cccnc3[C@H](C)OC)n4CC)CC(C)(C)COC(=O)[C@@H]3CCCN(N3)C2=O)C(C)C)C1 (atropisomer, axis not shown)" readout=pIC50 observedresult="< 5.00"

Quick one: pIC50 for C=CC(=O)N1CCC2(CCN([C@H](C(=O)N[C@H]3Cc4cc(O)cc(c4)-c4ccc5c(c4)c(c(-c4cccnc4[C@H](C)OC)n5CC)CC(C)(C)COC(=O)[C@@H]4CCCN(N4)C3=O)C(C)C)C2=O)C1 (some centres unmarked) ? 6.00 to 7.00

Quick one: pIC50 for CCn1c(-c2cccnc2[C@H](C)OC)c2c3cc(ccc31)N1CCO[C@@H](C[C@H](NC(=O)[C@H](C(C)C)N3CC[C@@]4(CCN(C(=O)C#CC(C)(C)N(C)C)C4)C3=O)C(=O)N3CCC[C@H](N3)C(=O)OCC(C)(C)C2)C1 (atropisomer, axis not shown) ? < 5.00

Quick one: pIC50 for `C=CC(=O)N1CC[C@H](C(=O)N(C)[C@H](C(=O)N[C@H]2Cc3cc(O)cc(c3)-c3ccc4c(c3)c(c(-c3nccnc3COC)n4CC)CC(C)(C)COC(=O)[C@@H]3CCCN(N3)C2=O)C(C)C)C1` ? < 5.00

Quick one: pIC50 for CCn1c(-c2cccnc2[C@H](C)OC)c2c3cc(ccc31)N1CCC[C@@H](C[C@H](NC(=O)[C@H](C(C)C)N(C)C(=O)C3(F)CCN(C(=O)C#CC(C)(C)N(C)C)CC3)C(=O)N3CCC[C@H](N3)C(=O)OCC(C)(C)C2)C1 (atropisomer, axis not shown) [Example A616] ? < 5.00

Quick one: pIC50 for C=CC(=O)N1CC[C@H](C(=O)N(C)[C@H](C(=O)N[C@H]2Cc3cccc(c3)-c3ccc4c(c3)c(c(-c3cc5c(nc3[C@H](C)OC)CCN(C)C5)n4CC)CC(C)(C)COC(=O)[C@@H]3CCCN(N3)C2=O)C(C)C)C1 (atropisomer, axis not shown) ? < 5.00
